Target: UniProt:O14965
Sequence (O14965 whole entry): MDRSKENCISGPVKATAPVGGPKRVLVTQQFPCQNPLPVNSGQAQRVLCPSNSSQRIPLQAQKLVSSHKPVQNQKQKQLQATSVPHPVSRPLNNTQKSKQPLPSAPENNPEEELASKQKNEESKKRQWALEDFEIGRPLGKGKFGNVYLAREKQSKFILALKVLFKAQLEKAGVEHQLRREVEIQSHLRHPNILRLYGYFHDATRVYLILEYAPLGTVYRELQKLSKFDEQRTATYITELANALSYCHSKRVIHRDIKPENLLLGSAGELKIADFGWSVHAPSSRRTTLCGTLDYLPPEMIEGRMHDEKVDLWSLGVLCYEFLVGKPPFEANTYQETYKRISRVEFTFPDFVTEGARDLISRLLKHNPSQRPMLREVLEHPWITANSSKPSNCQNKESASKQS
Test: AA IC50 (Table 1; no method given)
Type: biochemical
Details: Table 2, AurA IC50; class symbols; read-out: AurA IC50
pIC50: −log10 of the molar value.
# Lookup of reported pIC50 keyed by entry

>  <molecule>
CN1C(=O)CCN(C2CCOCC2)c2nc(Nc3ccc4c(c3)CS(=O)(=O)C4)ncc21 [compound 81]

>  <pIC50>
> 6.00

$$$$
>  <molecule>
Cc1cc(Nc2ncc3c(n2)N(C2CCCC2)CCC(=O)N3C)ccc1NC(=O)C1CC1 [compound 179]

>  <pIC50>
> 7.00

$$$$
>  <molecule>
COc1cc(Nc2ncc3c(n2)N(C2CCCC2)CCC(=O)N3C)ccc1C(=O)NC1CCN(C)CC1 [compound 58]

>  <pIC50>
> 7.00

$$$$
>  <molecule>
CN1C(=O)CCN(c2ccc(C(C)(C)C)cc2)c2nc(Nc3ccc4c(c3)CS(=O)(=O)C4)ncc21 [compound 334]

>  <pIC50>
> 5.00

$$$$
>  <molecule>
CN1CCC(NC(=O)CCc2ccc(Nc3ncc4c(n3)N(C3CCCC3)CCC(=O)N4C)cc2)CC1 [compound 180]

>  <pIC50>
> 7.00

$$$$
>  <molecule>
CN1C(=O)CCN(C2CCCC2)c2nc(Nc3ccc4[nH]ncc4c3)ncc21 [compound 139]

>  <pIC50>
> 7.00

$$$$
>  <molecule>
CCN1C(=O)CCN(C(C)(C)C)c2nc(Nc3ccc4c(c3)CS(=O)(=O)C4)ncc21 [compound 122]

>  <pIC50>
> 6.00

$$$$
>  <molecule>
CN1C(=O)CCN(C2CCCC2)c2nc(Nc3ccc(C(=O)NC4CC4)cc3)ncc21 [compound 176]

>  <pIC50>
> 7.00

$$$$

###

# Lookup of reported IC50 keyed by entry
Molecular target: PLK1 (Homo sapiens)
Sequence (P53350 whole entry): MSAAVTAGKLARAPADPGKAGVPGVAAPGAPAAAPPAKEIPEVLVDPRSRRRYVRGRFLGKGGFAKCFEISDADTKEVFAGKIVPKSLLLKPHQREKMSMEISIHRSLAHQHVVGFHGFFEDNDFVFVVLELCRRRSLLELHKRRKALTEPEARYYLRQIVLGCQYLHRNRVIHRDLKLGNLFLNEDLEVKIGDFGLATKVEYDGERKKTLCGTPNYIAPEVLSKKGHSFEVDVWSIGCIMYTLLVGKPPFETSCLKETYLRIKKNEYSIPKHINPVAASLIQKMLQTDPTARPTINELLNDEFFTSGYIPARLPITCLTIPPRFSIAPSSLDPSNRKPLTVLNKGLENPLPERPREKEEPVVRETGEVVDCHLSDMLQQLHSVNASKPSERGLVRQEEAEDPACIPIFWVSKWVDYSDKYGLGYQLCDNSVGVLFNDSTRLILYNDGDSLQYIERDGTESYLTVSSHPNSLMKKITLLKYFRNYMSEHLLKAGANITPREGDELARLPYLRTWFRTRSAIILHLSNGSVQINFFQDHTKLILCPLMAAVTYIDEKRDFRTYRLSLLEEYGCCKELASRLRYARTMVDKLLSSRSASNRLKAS
Assay: PLK1 protein kinase assay (CDC25C phosphorylation, [γ-32P]-ATP)
Type: biochemical
Conditions: Table 2, PLK1 IC50; class symbols; read-out: PLK1 IC50

>  <compound>
CN1C(=O)C2(CC2)CN(C2CCCC2)c2nc(Nc3ccc4[nH]ncc4c3)ncc21

>  <IC50>
< 0.1 µM

$$$$
>  <compound>
CN1C(=O)CCN(C2CCCC2)c2nc(Nc3ccc(S(C)(=O)=O)cc3)ncc21

>  <IC50>
< 10 µM

$$$$
>  <compound>
CNC(=O)c1ccc(OC)c(Nc2ncc3c(n2)N(C2CCCC2)CCC(=O)N3C)c1

>  <IC50>
< 1 µM

$$$$
>  <compound>
COc1ccc(N2CCC(=O)N(C)c3cnc(Nc4ccc(C(=O)NC5CCN(Cc6ccccc6)CC5)cc4OC)nc32)cc1

>  <IC50>
< 1 µM

$$$$
>  <compound>
CCN(CC)CCNC(=O)c1ccc(OC)c(Nc2ncc3c(n2)N(C2CCCC2)CCC(=O)N3C)c1

>  <IC50>
< 1 µM

$$$$
>  <compound>
COc1ccc(C(=O)NCCO)cc1Nc1ncc2c(n1)N(C1CCCC1)CCC(=O)N2C

>  <IC50>
< 1 µM

$$$$
>  <compound>
CN1C(=O)CCN(C2CCCC2)c2nc(NCc3cccs3)ncc21

>  <IC50>
< 10 µM

$$$$
>  <compound>
COc1cc(C(=O)NCc2cccn2C)ccc1Nc1ncc2c(n1)N(CC1CC1)CCC(=O)N2C

>  <IC50>
< 1 µM

$$$$
>  <compound>
CN1C(=O)C2(CC2)CN(C2CCCC2)c2nc(Nc3ccc(C(=O)O)cc3)ncc21

>  <IC50>
< 1 µM

$$$$
>  <compound>
CN1C(=O)CCN(c2ccccc2F)c2nc(Nc3ccc(C(=O)O)cc3)ncc21

>  <IC50>
< 10 µM

$$$$
>  <compound>
CN(C)C(=O)c1ccc(Nc2ncc3c(n2)N(C2CCCC2)CCC(=O)N3C)cc1

>  <IC50>
< 10 µM

$$$$
>  <compound>
CCc1cc(C(=O)NC2CCN(C)CC2)ccc1Nc1ncc2c(n1)N(C1CCCC1)CC1(CC1)C(=O)N2C

>  <IC50>
< 0.1 µM

$$$$
>  <compound>
COc1cc(C(=O)NC2CC(C)(C)N(C)C(C)(C)C2)ccc1Nc1ncc2c(n1)N(C1CCCC1)CC1(CC1)C(=O)N2C

>  <IC50>
< 0.1 µM

$$$$
>  <compound>
CN1C(=O)CCN(C2CCCC2)c2nc(Nc3ccc(S(=O)(=O)N4CCOCC4)cc3)ncc21

>  <IC50>
< 10 µM

$$$$
>  <compound>
COc1cc(C(=O)NC2CCN(C)CC2)ccc1Nc1ncc2c(n1)N(C1CCCC1)CC1(CCCC1)C(=O)N2C

>  <IC50>
< 1 µM

$$$$
>  <compound>
COc1cc(C(=O)NCCO)ccc1Nc1ncc2c(n1)N(C1CCCC1)CC1(CC1)C(=O)N2C

>  <IC50>
< 0.1 µM

$$$$
>  <compound>
COc1ccccc1Nc1ncc2c(n1)N(C1CCCC1)CCC(=O)N2C

>  <IC50>
< 1 µM

$$$$
>  <compound>
COc1cc(C(=O)N[C@H]2c3ccccc3C[C@H]2O)ccc1Nc1ncc2c(n1)N(C1CCCC1)CCC(=O)N2C

>  <IC50>
< 1 µM

$$$$
>  <compound>
COc1cccc(N2CCC(=O)N(C)c3cnc(Nc4ccc(C(=O)NC5CCN(C)CC5)cc4OC)nc32)c1

>  <IC50>
< 10 µM

$$$$
>  <compound>
CC(=O)N(C)S(=O)(=O)c1ccc(Nc2ncc3c(n2)N(C2CCCC2)CCC(=O)N3C)cc1

>  <IC50>
< 10 µM

$$$$
>  <compound>
Cc1cccc(CNc2ncc3c(n2)N(C2CCCC2)CCC(=O)N3C)c1

>  <IC50>
< 10 µM

$$$$
>  <compound>
COc1cc(C(=O)NC2CCN(C)CC2)ccc1Nc1ncc2c(n1)N(CCC(=O)NCCCN(C)C)CCC(=O)N2C

>  <IC50>
< 1 µM

$$$$
>  <compound>
COc1ccc(C(=O)NCC2CCCCN2C)cc1Nc1ncc2c(n1)N(C1CCCC1)CCC(=O)N2C (stereo not shown)

>  <IC50>
< 1 µM

$$$$
>  <compound>
COc1cc(C(=O)NCC2CCN(C)CC2)ccc1Nc1ncc2c(n1)N(CC1CC1)CCC(=O)N2C

>  <IC50>
< 1 µM

$$$$
>  <compound>
COc1cc(C(=O)NC2CCCN(C)C2)ccc1Nc1ncc2c(n1)N(C1CCCC1)CCC(=O)N2C (stereo not shown)

>  <IC50>
< 0.1 µM

$$$$
>  <compound>
Cc1cc(C(=O)O)ccc1Nc1ncc2c(n1)N(C1CCCC1)CC1(CC1)C(=O)N2C

>  <IC50>
< 10 µM

$$$$
>  <compound>
COc1cc(C(=O)NC2CN3CCC2CC3)ccc1Nc1ncc2c(n1)N(C1CCCC1)CC(C)(C)C(=O)N2C (racemic)

>  <IC50>
< 0.1 µM

$$$$
>  <compound>
COc1cc(C(=O)NCc2ccco2)ccc1Nc1ncc2c(n1)N(C1CCCC1)CC1(CCC1)C(=O)N2C

>  <IC50>
< 1 µM

$$$$
>  <compound>
COc1cc(C(=O)NC2CCN(C)CC2)ccc1Nc1ncc2c(n1)N(CC1CCCC1)CCC(=O)N2C

>  <IC50>
< 1 µM

$$$$
>  <compound>
COc1ccc(C(=O)NC2CCN(Cc3ccccc3)CC2)cc1Nc1ncc2c(n1)N(C1CCCC1)CCC(=O)N2C

>  <IC50>
< 1 µM

$$$$
>  <compound>
CCN1CCC(NC(=O)c2ccc(Nc3ncc4c(n3)N(C3CCCC3)CCC(=O)N4C)c(OC)c2)CC1

>  <IC50>
< 0.1 µM

$$$$

Data provenance: patent US8563542B2
